Tested on: PRMT1 (protein arginine N-methyltransferase 1)
Test: small molecules binding arginine methyltransferase PRMT1 – biochemical, small-molecule microarray, 635 nm fluorescence, primary screen (AID 1088);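 note: binding of Prmt1 protein to compounds spotted on small-molecule microarray slides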
Details: higher = more signal
Some compounds, each annotated with its measured composite z-score.

Record excerpt, results attached:
COC(=O)[C@@]1(Cc2ccc(F)cc2)[C@H]2c3cc(C(=O)N4CCCC4)n(Cc4ccccn4)c3C[C@H]2CN1C(=O)c1ccccc1 0.159
CC(C)(C)OC(=O)CC[C@@]1(C(=O)NCCN2CCOCC2)N=C(c2ccc(OCCCO)cc2)O[C@@H]1c1ccccc1CN=[N+]=[N-] 1.09
C=CCNC(=O)[C@@H]1[C@H]2C(=O)O[C@H](c3ccccc3)[C@H](c3ccccc3)N2[C@H](c2ccc(OCCO)cc2)[C@@]12C(=O)Nc1ccc(C#CC3(O)CCCCCC3)cc12 1.45

Alright, here's another compound for you.
Lab note: compound COc1ccc(C(=O)Nc2cccc(CN3C(=O)[C@]4(O[C@H](CC(=O)N5Cc6ccccc6C[C@H]5CO)[C@@H]([Si](C)(C)c5ccc(OC)cc5)[C@@H]4C)c4ccccc43)c2)cc1 tested on PRMT1 (protein arginine N-methyltransferase 1); recorded composite z-score was 1.55

----------
Target: Neurogenic locus notch homolog protein 3 (Homo sapiens)
Experiment: small molecules binding NOTCH3 protein – biochemical, 635/667 nm fluorescence, primary screen (AID 1096)
Conditions: small-molecule microarray, 635 nm fluorescence, higher = more signal
parameterMeasured: composite z-score

O=C(NCc1ccccc1)[C@@H]1c2ccccc2C(=O)N(Cc2ccc(OC(F)(F)F)cc2)[C@H]1c1ccc(CO)cc1 -0.577
CCCC[C@H]1C[C@@H]1[C@@H]1N(C(C)=O)[C@H](c2cccc(OC)c2)CC12CC2 -0.27

composite z-score for COCCOC(=O)N1C(=O)[C@@]2(c3cc(C#CC4(O)CCCCCC4)ccc31)[C@H](c1ccc(O)cc1)N1[C@H](c3ccccc3)[C@H](c3ccccc3)OC(=O)[C@H]1[C@@H]2C(=O)N1CCCCCCC1 is 1.06

CC1=C([C@H](O)CCc2ccccc2)[C@H](CO)n2c(=O)n(-c3ccccc3)c(=O)n2C1 has a reported composite z-score of -0.696

----------
System: XIP peptide (Xip251-270) binding
Experiment: XIP fragment 251-270 binding compounds – biochemical, small-molecule microarray, fluorescence 635/667 nm, 0.1 µg/mL protein, primary screen (AID 1182)
Settings: fluorescent protein binding, 635 nm, higher = more signal, called active from +8 up or from −8 down
Calls of active or inactive are those of the source.
parameterMeasured: composite z-score

Here's what some known entries look like.
molecule	measurement
O=C(NCC(O)CO)C1N=C(c2ccc(OCCCO)cc2)N(c2ccccc2)O1 (configuration not stated)	0.654 (inactive)
CN1C(=O)C2C=CC(C(O)c3ccc(-c4ccccc4)s3)N(NC(=O)OC(C)(C)C)C2C1=O (configuration not stated)	0.359 (inactive)
COCCOC(=O)N1C(=O)[C@@]2(c3ccccc31)[C@H](c1ccc(O)cc1)N1[C@H](c3ccccc3)[C@H](c3ccccc3)OC(=O)[C@H]1[C@@H]2C(=O)N1CCCCCCC1	4.66 (inactive)
CN(C)C(=O)[C@@]1(Cc2ccccc2CN=[N+]=[N-])COC(c2ccc(OCCCO)cc2)=N1	0.182 (inactive)
COC(=O)[C@@]1(Cc2ccc(OC)cc2)[C@H]2c3cc(C(=O)N4CCCC4)n(Cc4ccc(Cl)c(C(F)(F)F)c4)c3C[C@H]2CN1C(=O)c1ccccc1	0.151 (inactive)

Entry CC(C)NC(=O)[C@@]1(c2ccc([N+](=O)[O-])cc2)CC(=O)N(CC23CC4CC(CC(C4)C2)C3)[C@@H]1c1ccc(CO)cc1 — recorded composite z-score = 1.26 (inactive)

Record summary for COc1ccc([Si](C)(C)[C@@H]2[C@@H](CC(=O)N3CCC[C@H]3CO)O[C@]3(C(=O)N(Cc4ccc(N5CCOC5=O)cc4)c4ccccc43)[C@H]2C)cc1 : reported composite z-score = 0.56 (inactive)

----------
Test: probe aLefty1 binding on compound microarray – biochemical, small-molecule microarray, 635/667 nm fluorescence, primary screen (AID 1153);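 note: score merges spot fluorescence with signal-to-noise ratio from the scanned slide images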
Conditions: higher = more signal
parameterMeasured: composite z-score

NCCCCCCNC(=O)[C@@H]1C[C@@H]2C(=O)N3CCC[C@H]3C(=O)N2[C@@H]1c1cccc(OCCO)c1 has a reported composite z-score of 0.012

Entry CN1C(=O)C2C=CC(C(O)c3ccc(-c4ccccc4)s3)N(NC(=O)OC(C)(C)C)C2C1=O (centres undefined) ; composite z-score = 0.335

The compound C=C1C(=O)C=C2CN(C(=O)c3ccccc3)[C@@](Cc3ccc(OC)cc3)(C(=O)OC)[C@@H]12 showed composite z-score equal to 1.46

Record CC1=C([C@H](O)CCc2ccccc2)[C@H](CO)n2c(=O)n(-c3ccccc3)c(=O)n2C1 , field composite z-score: -0.06

----------
Experiment: S6 kinase pathway phospho-S6 level changes – cell-based, A549, cytoblot, luminescence, serum-stimulated, primary screen (AID 1158);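 note: serum-stimulated A549 lung adenocarcinoma cells; signal is phosphorylated S6 detected by cytoblot immunostaining with HRP secondary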
Conditions: 5 h, higher = more signal
just bin them by z-score: b0 = under -0.1, b1 = from -0.1 up to 0.4, b2 = 0.4 and over

Illustrative cases are given below, each with its answer.
compound	classification
CC(C)=CCCC(C)=CC(O)C1C=CC2C(=O)NC(=O)C2N1Nc1ccccn1 (stereo not drawn)	b2
CC(C)NC(=O)[C@@]1(C)c2ccccc2C(=O)N(Cc2ccccc2)[C@H]1c1ccc(CO)cc1	b2
COCCCNC(=O)[C@@]1(CCS(=O)(=O)c2ccccc2)COC(c2ccc(OCCCO)cc2)=N1	b0

IN: Category lookup for the compound Cc1ccccc1C(O)C1C=CC2C(=O)N(c3ccccc3)C(=O)C2N1Nc1ccccc1 (stereo not drawn)
OUT: b0

----------
Target: Focal adhesion kinase 1 (Homo sapiens) (UniProt Q05397)
Sequence (Q05397 whole entry, looked up): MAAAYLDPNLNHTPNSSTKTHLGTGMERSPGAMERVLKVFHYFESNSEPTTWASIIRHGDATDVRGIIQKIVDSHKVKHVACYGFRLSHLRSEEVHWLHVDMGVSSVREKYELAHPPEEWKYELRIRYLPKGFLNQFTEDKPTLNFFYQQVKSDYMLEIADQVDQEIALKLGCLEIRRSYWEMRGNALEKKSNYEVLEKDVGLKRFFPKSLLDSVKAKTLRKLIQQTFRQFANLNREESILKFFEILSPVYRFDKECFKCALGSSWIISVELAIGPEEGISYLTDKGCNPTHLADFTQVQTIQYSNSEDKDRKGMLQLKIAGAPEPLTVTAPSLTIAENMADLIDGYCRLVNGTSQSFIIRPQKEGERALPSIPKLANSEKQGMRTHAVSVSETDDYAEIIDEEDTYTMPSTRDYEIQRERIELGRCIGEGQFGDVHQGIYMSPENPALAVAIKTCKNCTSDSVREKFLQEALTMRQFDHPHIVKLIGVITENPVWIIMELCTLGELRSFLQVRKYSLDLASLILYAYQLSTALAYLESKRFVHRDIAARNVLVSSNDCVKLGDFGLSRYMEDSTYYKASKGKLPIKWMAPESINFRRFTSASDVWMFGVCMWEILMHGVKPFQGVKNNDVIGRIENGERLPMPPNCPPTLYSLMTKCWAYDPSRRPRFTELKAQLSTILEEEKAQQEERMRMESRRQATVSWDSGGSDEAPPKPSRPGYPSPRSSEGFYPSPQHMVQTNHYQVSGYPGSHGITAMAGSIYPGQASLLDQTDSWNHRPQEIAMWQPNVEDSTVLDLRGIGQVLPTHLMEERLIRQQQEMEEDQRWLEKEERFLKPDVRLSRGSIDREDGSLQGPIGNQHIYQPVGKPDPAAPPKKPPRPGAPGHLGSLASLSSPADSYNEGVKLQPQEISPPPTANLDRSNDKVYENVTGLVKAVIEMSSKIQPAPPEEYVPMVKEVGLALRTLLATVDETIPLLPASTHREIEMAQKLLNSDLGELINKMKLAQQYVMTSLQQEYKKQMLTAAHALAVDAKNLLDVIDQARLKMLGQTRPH
Test: PTK2 protein binding on printed compound slides – biochemical, small-molecule microarray, 635/667 nm fluorescence, BSA, DTT, primary screen (AID 1130);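 note: composite of spot emission at 667 nm and signal to noise over triplicate slides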
Settings: 635 nm fluorescence, higher = more signal
// composite z-score lookup, one value per entry
Enter the number alone.

Example results:
compound	tgt	composite z-score
COCCOC(=O)N1C(=O)[C@@]2(c3cc(C#CCC(C(=O)OC)C(=O)OC)ccc31)[C@H](C(=O)Nc1nc3ccccc3s1)[C@H]1C(=O)O[C@H](c3ccccc3)[C@H](c3ccccc3)N1[C@@H]2c1ccc(O)cc1	Focal adhesion kinase 1 (Homo sapiens) (UniProt Q05397)	0.235
COCCCNC(=O)[C@@]1(Sc2ccc(C)cc2)CC(=O)N(Cc2ccccc2C(F)(F)F)[C@@H]1c1ccc(CO)cc1I	Focal adhesion kinase 1 (Homo sapiens) (UniProt Q05397)	-0.905
O=C(N1CCOCC1)[C@@]1(Cc2ccccc2)COC(c2ccc(OCCCO)cc2)=N1	Focal adhesion kinase 1 (Homo sapiens) (UniProt Q05397)	0.674

// composite z-score value for C=C(COC)C(=O)CC[C@H](OC(=O)c1cccnc1)c1ccc(OCCO)cc1 : -0.172

The compound listed as CN(C)CCCC[C@@H]1NC(=O)[C@@H]2C[C@H](C(=O)NCCCCCCNC(=O)CS)[C@H](c3ccc(O)cc3)N2C1=O shows composite z-score equal to 0.335

Form: compound = Cc1ccc(F)cc1S(=O)(=O)N[C@H]1CCN(Cc2ccc(OC(C)C)cc2)C1 ; composite z-score = -0.198

Entry CC(C)=C1C(=O)C(c2ccccc2)=C2CN3C(=O)N(CCc4ccccc4)C(=O)[C@]3(C)[C@H]21 ; composite z-score = 0.701

----------
Recorded z-score, one value per entry.
Assay: blockers of DNA damage checkpoint Chk1 activation – imaging, HeLa, hydroxyurea, phospho-Chk1 nuclear intensity, primary screen (AID 1187)
Details: hydroxyurea-induced phospho-Chk1 immunofluorescence imaging, higher = more signal
No unit in the answer, only the number.

Here is how some molecules turned out for z-score.
CCCCC(=C=CC[C@H](O)c1ccc(CO)o1)CCO 0.392
O=C1C[C@@](C(=O)NCc2ccccc2)(c2ccc([N+](=O)[O-])cc2)[C@@H](c2ccc(CO)cc2)N1C1CCCCC1 -0.0661

Moving on to the next molecule.
Lab note: measured z-score of COc1ccc([Si](C)(C)[C@@H]2[C@@H](CC(=O)N3Cc4ccccc4C[C@H]3CO)O[C@]3(C(=O)N(Cc4ccc(N5CCOC5=O)cc4)c4ccccc43)[C@H]2C)cc1 was -0.106

----------
Tested on: XIP peptide (Xip251-270)
Experiment: compounds binding XIP fragment 251-270 – biochemical, small-molecule microarray, fluorescence 635/667 nm, 0.5 µg/mL protein, primary screen (AID 1183)
Details: fluorescence 635 nm, higher = more signal
parameterMeasured: composite z-score
A bare number is all that is needed in reply.

molecule	measurement
NC(=O)N1C(=O)C2C(C1=O)C1C=C(CCCO)C2C(c2ccc(CN3CCCC3)cc2)N1Cc1sc2ccccc2c1Cl (centres undefined)	0.245
COCCOC(=O)N1C(=O)[C@@]2(c3cc(C#CC4(O)CCCCCC4)ccc31)[C@H](c1ccc(O)cc1)N1[C@H](c3ccccc3)[C@H](c3ccccc3)OC(=O)[C@H]1[C@@H]2C(=O)N1CCCCCCC1	0.747
CCOC(=O)C1=C[C@@H](C(C)(C)C)N(S(=O)(=O)c2ccc(C)cc2)[C@H]1c1ccc(C#N)cc1	0.662
COC(=O)[C@H](Cc1ccccc1)N1CC2=CCCC=C[C@@H]2[C@H]1[C@H](O)Cc1ccccc1	-0.221
O=C1C[C@@](C(=O)NC2CC2)(c2ccc([N+](=O)[O-])cc2)[C@@H](c2ccc(CO)cc2)N1C1CCCCC1	0.662
O=C1C2C=CC(C(O)C3CCCCC3)N(n3cnnc3)C2C(=O)N1Cc1ccccc1 (centres undefined)	-0.0061
CC(C)(C)OC(=O)CC[C@@]1(C(=O)NCCN2CCOCC2)N=C(c2ccc(OCCCO)cc2)O[C@@H]1c1ccccc1CN=[N+]=[N-]	0.729
Cc1ccccc1C(O)C1C=CC2C(=O)N(c3ccccc3)C(=O)C2N1Nc1ccccc1 (centres undefined)	0.889

composite z-score for COc1ccc(C(O)C2C=CC3C(=O)NC(=O)C3N2Nc2ccc(Cl)cc2Cl)c2ccccc12 (centres undefined) is 0.687
